meta.source: patent US10351575B2

Assayed system: His-tagged recombinant human TrkA (Homo sapiens (Human), UniProt P04629)
Sequence (P04629 440-796): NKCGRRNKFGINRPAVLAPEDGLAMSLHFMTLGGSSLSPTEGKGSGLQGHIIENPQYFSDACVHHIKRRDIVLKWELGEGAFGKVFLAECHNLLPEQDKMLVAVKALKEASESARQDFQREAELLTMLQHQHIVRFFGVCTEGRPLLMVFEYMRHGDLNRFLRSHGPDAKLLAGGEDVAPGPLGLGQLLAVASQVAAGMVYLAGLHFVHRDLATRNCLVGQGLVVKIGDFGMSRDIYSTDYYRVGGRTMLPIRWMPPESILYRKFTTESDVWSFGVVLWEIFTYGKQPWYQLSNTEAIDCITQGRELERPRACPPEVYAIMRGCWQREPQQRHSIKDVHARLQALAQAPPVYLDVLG
Test: TrkA LanthaScreen Eu Kinase Binding Assay
Study conditions: averaged IC50; TR-FRET binding, 60 min, 22° C.; read-out: TrkA Enzyme IC50
pIC50: −log10 of the molar value.
Metric name: pIC50

I have this compound here, CNC(=O)c1nn(-c2ccccc2)c(NC(=O)N[C@@H]2c3cc(COC)ccc3C(C)(C)C[C@H]2O)c1C (relative stereo) [Example 120] , and I need its recorded pIC50. > 7.00

I have this compound here, Cc1nn(-c2ccccc2)c(NC(=O)N[C@H]2CCCc3ccccc32)c1Br [Example 11] , and I need its recorded pIC50. > 7.00

I have this compound here, COc1ncc(-c2nn(-c3ccccc3)c(NC(=O)N[C@@H]3c4ccccc4C[C@H]3O)c2C)cn1 [Example 68] , and I need its recorded pIC50. > 7.00

I have this compound here, Cc1c(-c2cnn(C)c2)nn(-c2ccccc2)c1NC(=O)NC1CC(C)(C)Oc2ccccc21 (centres unmarked) [Example 9] , and I need its recorded pIC50. 6.00 to 7.00

I have this compound here, O=C(Nc1c2c(nn1-c1ccccc1)CCC2)N[C@H]1CCCc2ccccc21 [Example 3] , and I need its recorded pIC50. > 7.00

I have this compound here, Cc1c(-c2cnn(C)c2)nn(-c2ccccc2)c1NC(=O)NC1CC2(CCC2)Oc2ccccc21 (centres unmarked) [Example 35B] , and I need its recorded pIC50. 6.00 to 7.00

I have this compound here, Cc1c(-c2cnn(C)c2)nn(-c2ccccc2)c1NC(=O)N[C@@H]1c2ccccc2C[C@H]1O [Example 65] , and I need its recorded pIC50. > 7.00

I have this compound here, COc1nn(-c2ccccc2)c(NC(=O)N[C@@H]2c3cc(F)c(F)cc3C3(CC3)[C@H]2O)c1C (relative stereo) [Example 62] , and I need its recorded pIC50. > 7.00

###

Assayed system: TSSK2 (Homo sapiens (Human), UniProt Q96PF2)
Sequence (Q96PF2 whole entry): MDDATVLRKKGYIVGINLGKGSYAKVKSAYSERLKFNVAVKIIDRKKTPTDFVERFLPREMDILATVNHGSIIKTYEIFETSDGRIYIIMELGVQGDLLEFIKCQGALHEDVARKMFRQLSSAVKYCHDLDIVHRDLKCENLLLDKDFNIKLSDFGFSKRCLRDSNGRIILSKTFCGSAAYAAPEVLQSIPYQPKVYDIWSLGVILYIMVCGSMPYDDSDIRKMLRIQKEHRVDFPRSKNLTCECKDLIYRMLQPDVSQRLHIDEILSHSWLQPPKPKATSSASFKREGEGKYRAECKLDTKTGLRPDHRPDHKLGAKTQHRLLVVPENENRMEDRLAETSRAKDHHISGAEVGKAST
Test: KinaseProfiler off-target kinase profiling
Type: biochemical
Study conditions: 10 μM, ATP near Km
Metric name: Avg. POC (POC)
Give the quantity in POC, number only.

I have this molecule here, Cc1c(-c2ccc(=O)n(C)c2)nn(-c2ccccc2)c1NC(=O)NC1CN(CC(F)(F)F)Cc2ccccc21 (stereo not shown) , and I need its recorded Avg. POC. 128

I have this molecule here, Cc1c(-c2cnn(C)c2)nn(-c2ccccc2)c1NC(=O)NC1CCOc2cc(F)ccc21 (stereo not shown) , and I need its recorded Avg. POC. 139

I have this molecule here, COCc1ccc2c(c1)C(NC(=O)Nc1c(C)c(-c3cnn(C)c3)nn1-c1ccccc1)COC2 (stereo not shown) , and I need its recorded Avg. POC. 120.5

I have this molecule here, Cc1c(-c2cnn(C)c2)nn(-c2ccccc2)c1NC(=O)N[C@H]1CCCc2ccccc21 , and I need its recorded Avg. POC. 118.5

###

Assayed system: HIPK2 (Homo sapiens (Human), UniProt Q9H2X6)
Sequence (Q9H2X6 whole entry): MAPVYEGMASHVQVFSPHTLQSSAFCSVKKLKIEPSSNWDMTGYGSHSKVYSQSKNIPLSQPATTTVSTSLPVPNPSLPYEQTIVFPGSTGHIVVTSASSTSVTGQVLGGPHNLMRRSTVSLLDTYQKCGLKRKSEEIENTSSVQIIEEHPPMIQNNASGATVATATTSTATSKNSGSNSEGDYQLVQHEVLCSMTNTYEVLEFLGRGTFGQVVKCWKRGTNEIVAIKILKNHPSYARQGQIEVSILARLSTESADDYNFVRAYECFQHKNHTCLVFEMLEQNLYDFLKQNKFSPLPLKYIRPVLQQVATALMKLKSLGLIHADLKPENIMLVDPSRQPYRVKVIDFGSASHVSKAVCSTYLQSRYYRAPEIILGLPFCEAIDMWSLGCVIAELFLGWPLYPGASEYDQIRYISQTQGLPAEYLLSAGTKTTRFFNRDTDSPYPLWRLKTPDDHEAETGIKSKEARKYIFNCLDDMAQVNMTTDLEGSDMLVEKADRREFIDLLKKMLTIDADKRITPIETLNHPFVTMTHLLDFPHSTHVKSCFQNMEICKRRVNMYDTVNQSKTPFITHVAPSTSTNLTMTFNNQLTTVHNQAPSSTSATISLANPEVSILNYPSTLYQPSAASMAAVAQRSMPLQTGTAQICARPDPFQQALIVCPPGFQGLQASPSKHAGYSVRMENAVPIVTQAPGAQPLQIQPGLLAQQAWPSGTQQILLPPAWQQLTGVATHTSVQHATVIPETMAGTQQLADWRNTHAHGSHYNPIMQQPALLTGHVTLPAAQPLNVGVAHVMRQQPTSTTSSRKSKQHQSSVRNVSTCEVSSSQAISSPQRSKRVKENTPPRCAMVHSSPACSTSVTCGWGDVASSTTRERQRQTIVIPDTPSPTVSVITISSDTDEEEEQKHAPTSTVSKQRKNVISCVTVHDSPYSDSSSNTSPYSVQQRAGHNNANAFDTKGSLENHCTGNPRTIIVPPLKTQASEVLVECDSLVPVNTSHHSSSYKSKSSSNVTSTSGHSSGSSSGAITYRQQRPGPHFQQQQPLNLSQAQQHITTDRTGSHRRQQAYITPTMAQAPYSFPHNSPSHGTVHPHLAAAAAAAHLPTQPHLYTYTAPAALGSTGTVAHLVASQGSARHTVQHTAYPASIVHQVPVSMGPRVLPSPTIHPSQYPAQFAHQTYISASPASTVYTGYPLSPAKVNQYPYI
Test: KinaseProfiler off-target kinase profiling
Type: biochemical
Study conditions: 10 μM, ATP near Km
Metric name: Avg. POC (POC)
Give the quantity in POC, number only.

Form field - read-out: Avg. POC; system: HIPK2 (Homo sapiens (Human), UniProt Q9H2X6); submitted item: Cc1c(-c2cnn(C)c2)nn(-c2ccccc2)c1NC(=O)NC1CCOc2cc(F)ccc21 (stereo not shown) 91.5

Form field - read-out: Avg. POC; system: HIPK2 (Homo sapiens (Human), UniProt Q9H2X6); submitted item: Cc1c(-c2cnn(C)c2)nn(-c2ccccc2)c1NC(=O)N[C@H]1CCCc2ccccc21 97

Form field - read-out: Avg. POC; system: HIPK2 (Homo sapiens (Human), UniProt Q9H2X6); submitted item: Cc1c(-c2ccc(=O)n(C)c2)nn(-c2ccccc2)c1NC(=O)NC1CN(CC(F)(F)F)Cc2ccccc21 (stereo not shown) 103

Form field - read-out: Avg. POC; system: HIPK2 (Homo sapiens (Human), UniProt Q9H2X6); submitted item: COCc1ccc2c(c1)C(NC(=O)Nc1c(C)c(-c3cnn(C)c3)nn1-c1ccccc1)COC2 (stereo not shown) 99.5
